Value source: PubChem BioAssay (NCI)

Please go through the items and note down their growth.
System: RXF 393 renal
Experiment: NCI-60 one-dose screen, 48 h (100 = growth as untreated, 0 = no growth, -100 = all killed)
Details: 10 µM unless noted
The panel holds about 83,000 compounds, 20% with a hit somewhere; the sample as a whole holds those more often. Activity calls are given as the source filed them. Rule for the calls: active = growth percent below 10; inactive = the rest.

For this compound ( `NC(=S)n1c(=O)n(-c2cccc(C(F)(F)F)c2)c(=O)c2cc(-c3ccc(F)cc3F)ccc21` ), measured growth is 0.891% (active)

For this compound ( `Fc1ccc2nc(-c3cnn4cccnc34)sc2c1` ), measured growth is 92.9% (inactive)

For this compound ( `CCCC[n+]1ccc(SCC(=O)n2ccc3ccccc32)c2ccccc21` ), measured growth is 94.9% (inactive)

For this compound ( `NC(=O)c1ncn2c(=O)n(CCF)nnc12` ), measured growth is 96.6% (inactive)

For this compound ( `CN(C)c1cccc2c(S(=O)(=O)Nc3cccc(-c4csc(NC(=O)CCCCCN5CCN(CCO)CC5)n4)c3)cccc12` ), measured growth is 66.7% (inactive)

For this compound ( O=C1CSC(c2cn(-c3ccccc3)nc2-c2ccc(Cl)cc2)N1c1ccccc1 (stereo not given) ), measured growth is 126% (inactive)

For this compound ( `O=c1nc(Nc2ccc([N+](=O)[O-])cc2O)sc2ccccc12` ), measured growth is 7.31% (active)

For this compound ( `O=C(CCCCCCNC(=O)C(O)(O)C(F)(F)F)Nc1ccc(-c2ccccc2)cc1` ), measured growth is -45% (active)

For this compound ( `Cc1[nH]c(C(=O)Nc2ccc(C(=O)NCC3CCNCC3)cc2OC(C)C)c(Cl)c1Cl` ), measured growth is 71.3% (inactive)

For this compound ( `CNC(=O)c1cc(N2CCc3cc(NC(=O)Nc4ccc(N5CCN(C)CC5)c(C(F)(F)F)c4)ccc32)ccn1` ), measured growth is -16% (active)

---

Tested on: MALME-3M melanoma
Test: NCI-60 one-dose screen, 48 h
Conditions: 10 µM unless noted
This is part of a sample that, as a whole, favours compounds with a hit. Of some 83,000 tested, about 20% had one in any assay. Active and inactive are the calls of the source. How the source made its calls: active means growth percent below 10; inactive means the rest.
# valid calls are label 1 = active, label 0 = inactive; nothing else

Look up the recorded call for `COc1cccc2c1[C@H](OC)[C@]13O[C@@]1(C2=O)[C@H](O)[C@H](C)[C@@](O)(C(=O)[C@@H]1O[C@H]1C)[C@@H]3O` in this test.
label 1

Look up the recorded call for `CCCCCCNC(=O)Oc1ccc(/C(=C(/C)c2ccc(Cl)cc2)c2ccc(OCCN3CCCCCC3)cc2)cc1` in this test.
label 0

Look up the recorded call for CCCCN1C(=O)/C(=c2\sc3n(c2=O)C2C(NN=3)N(CC)C(=O)N2CC)c2cccc(C)c21 (stereo not drawn) in this test.
label 0

Look up the recorded call for `C[C@@H]1OCC2(CCN(c3cnc(C(=O)Nc4cc(F)cc5cccnc45)cn3)CC2)[C@@H]1N` in this test.
label 0

Look up the recorded call for CC[C@]12CC(C(=O)OC)=C3Nc4ccccc4[C@@]34CCN(C14)[C@@H]1c3cc4c(cc3O[C@@H]1[C@H]2O)NC1=C(C(=O)OC)C[C@@]2(CC)C3N(CC[C@@]143)C[C@H]1O[C@H]12 (stereo partly drawn) in this test.
label 1

Look up the recorded call for `Cc1ccc2c(n1)C(=O)C(Cl)=C(Nc1ccc(C(F)(F)F)cc1)C2=O` in this test.
label 1

Look up the recorded call for `CSc1ccc(/C(=N/N=C(N)N)c2ccc(F)cc2)cc1` in this test.
label 0

Look up the recorded call for `CC1=C(C)C(=O)C(Nc2ccc3c(c2)OCCO3)=C(Br)C1=O` in this test.
label 0
